- method-notes: Pharmacokinetic interaction study: single oral dose of Compound (I) alone and coadministered with acarbose
- Assay type: in vivo, healthy volunteers
- applied-conditions: human, in vivo; Compound (I) alone, single oral dose 8 mg, Day 1; median (range)

molecule | Tmax
CN(CCOc1ccc(CC2SC(=O)NC2=O)cc1)c1ccccn1 (stereo not shown) | 1.48 h

====

- method-notes: Pharmacokinetic interaction study: single oral dose of Compound (I) alone and coadministered with acarbose
- Format: in vivo, healthy volunteers
- applied-conditions: human, in vivo; Compound (I) alone, single oral dose 8 mg, Day 1, healthy volunteers
property-label: Cmax (ng/mL)

molecule | readout-unit | measured
CN(CCOc1ccc(CC2SC(=O)NC2=O)cc1)c1ccccn1 (stereo not shown) | ng/mL | 428

These entries and their values trace back to patent US20020123514A1.
